Give measured IC50 for each item. Keep answers brief.
System: human neutrophils
Assay: Inhibition of superoxide (O₂⁻) generation from neutrophils
Format: cell-based
Conditions: Neutrophil, Table A1, read-out: IC₅₀ (µM) Inhibition of O₂⁻ generation from neutrophils
Give the quantity in µM, number only.

Hello, I am looking for reported IC50 with human neutrophils for CC(C)Oc1c(C(=O)Nc2nnn[nH]2)sc2ccc(O)cc12 [Example C20A] . Could you help? 48

Hello, I am looking for reported IC50 with human neutrophils for COc1cc2sc(C(=O)Nc3nnn[nH]3)c(OCc3ccccc3)c2cc1OC [Example C21A] . Could you help? 40

Hello, I am looking for reported IC50 with human neutrophils for COc1cc2sc(C(=O)Nc3nnn[nH]3)c(Oc3ccccc3)c2cc1OC [Example C21] . Could you help? 6

Data origin, for the record: patent EP0299457A2
